System: DMS-114 complex spheroids with HUVEC/MSC, growth % test/control
procedure details: Anticancer human tumor DMS-114 cell line growth inhibition [AhR]
measurement setup: second compound 3.16 µM; first compound 3 µM; stronger effect = lower value
Provide the reported viability, T/C of each item.
Answers are plain numbers, in %.

Please review the entries below; each comes with its answer.
molecule | viability, T/C [%]
O=C(C=Cn1cnc(-c2cc(C(F)(F)F)cc(C(F)(F)F)c2)n1)NNc1cnccn1 + Cc1cncc(-c2nc(NCCc3c[nH]c4ccccc34)c3ncn(C(C)C)c3n2)c1 | 5.67
CCN(c1cc(-c2ccc(CN3CCOCC3)cc2)cc(C(=O)NCc2c(C)cc(C)[nH]c2=O)c1C)C1CCOCC1 + Cc1ccccc1N=Nc1ccc(NC(=O)c2ccnn2C)c(C)c1 | 105

Read the next record carefully.
Look up viability, T/C of CCN(c1cc(-c2ccc(CN3CCOCC3)cc2)cc(C(=O)NCc2c(C)cc(C)[nH]c2=O)c1C)C1CCOCC1 + CC(CO)NC(=O)c1cc(-c2ccc(Cl)cc2)nn(-c2cnn(C)c2)c1=O and report it. 91

* * *

Test system: DMS-114 complex spheroids with HUVEC/MSC, growth % test/control
procedure details: Anticancer human tumor DMS-114 cell line growth inhibition [AhR];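 note: spheroids exposed to agents for 7 days before readout; 100% = DMSO vehicle control wells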
measurement setup: second compound 1 µM; first compound 0.0949 µM; stronger effect = lower value
Classify: yes (1) when viability, T/C is strictly less than 80%; no (0) when viability, T/C is not.

Examples with answers:
molecule | category label
CCN(c1cc(-c2ccc(CN3CCOCC3)cc2)cc(C(=O)NCc2c(C)cc(C)[nH]c2=O)c1C)C1CCOCC1 + Cc1cncc(-c2nc(NCCc3c[nH]c4ccccc34)c3ncn(C(C)C)c3n2)c1 | no (0)
CC(C)CC(NC(=O)C(Cc1ccccc1)NC(=O)c1cnccn1)B(O)O (stereo not given) + Cc1ccccc1N=Nc1ccc(NC(=O)c2ccnn2C)c(C)c1 | yes (1)
CCc1c2c(nc3ccc(O)cc13)-c1cc3c(c(=O)n1C2)COC(=O)[C@]3(O)CC + Cc1ccccc1N=Nc1ccc(NC(=O)c2ccnn2C)c(C)c1 | yes (1)

is_below(viability, T/C, 80%) for CCc1c2c(nc3ccc(O)cc13)-c1cc3c(c(=O)n1C2)COC(=O)[C@]3(O)CC + CC(CO)NC(=O)c1cc(-c2ccc(Cl)cc2)nn(-c2cnn(C)c2)c1=O ? yes (1)

is_below(viability, T/C, 80%) for O=C(C=Cn1cnc(-c2cc(C(F)(F)F)cc(C(F)(F)F)c2)n1)NNc1cnccn1 + CC(CO)NC(=O)c1cc(-c2ccc(Cl)cc2)nn(-c2cnn(C)c2)c1=O ? yes (1)

is_below(viability, T/C, 80%) for O=C(C=Cn1cnc(-c2cc(C(F)(F)F)cc(C(F)(F)F)c2)n1)NNc1cnccn1 + Cc1ccccc1N=Nc1ccc(NC(=O)c2ccnn2C)c(C)c1 ? no (0)

is_below(viability, T/C, 80%) for Nc1ncn(C2CC(O)C(CO)S2)c(=O)n1 (stereo not given) + Cc1ccccc1N=Nc1ccc(NC(=O)c2ccnn2C)c(C)c1 ? no (0)

is_below(viability, T/C, 80%) for CC(C)CC(NC(=O)C(Cc1ccccc1)NC(=O)c1cnccn1)B(O)O (stereo not given) + Cc1cncc(-c2nc(NCCc3c[nH]c4ccccc34)c3ncn(C(C)C)c3n2)c1 ? yes (1)

is_below(viability, T/C, 80%) for CCN(c1cc(-c2ccc(CN3CCOCC3)cc2)cc(C(=O)NCc2c(C)cc(C)[nH]c2=O)c1C)C1CCOCC1 + CC(CO)NC(=O)c1cc(-c2ccc(Cl)cc2)nn(-c2cnn(C)c2)c1=O ? no (0)

* * *

Test system: DMS-114 complex spheroids with HUVEC/MSC, growth % test/control
procedure details: Anticancer human tumor DMS-114 cell line growth inhibition [AhR];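 note: spheroids exposed to agents for 7 days before readout; 100% = DMSO vehicle control wells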
measurement setup: second compound 3.16 µM; first compound 0.000949 µM; stronger effect = lower value
Provide the reported viability, T/C of each item.

Please review the entries below; each comes with its answer.
molecule | viability, T/C
Nc1ncn(C2CC(O)C(CO)S2)c(=O)n1 (stereo unspecified) + CC(CO)NC(=O)c1cc(-c2ccc(Cl)cc2)nn(-c2cnn(C)c2)c1=O | 112%
CC(C)CC(NC(=O)C(Cc1ccccc1)NC(=O)c1cnccn1)B(O)O (stereo unspecified) + Cc1ccccc1N=Nc1ccc(NC(=O)c2ccnn2C)c(C)c1 | 89.9%
CCc1c2c(nc3ccc(O)cc13)-c1cc3c(c(=O)n1C2)COC(=O)[C@]3(O)CC + Cc1cncc(-c2nc(NCCc3c[nH]c4ccccc34)c3ncn(C(C)C)c3n2)c1 | 62.9%
CC(C)CC(NC(=O)C(Cc1ccccc1)NC(=O)c1cnccn1)B(O)O (stereo unspecified) + Cc1cncc(-c2nc(NCCc3c[nH]c4ccccc34)c3ncn(C(C)C)c3n2)c1 | 93.8%
Nc1ncn(C2CC(O)C(CO)S2)c(=O)n1 (stereo unspecified) + Cc1cncc(-c2nc(NCCc3c[nH]c4ccccc34)c3ncn(C(C)C)c3n2)c1 | 102%

Read the next record carefully.
Look up viability, T/C of CCc1c2c(nc3ccc(O)cc13)-c1cc3c(c(=O)n1C2)COC(=O)[C@]3(O)CC + CC(CO)NC(=O)c1cc(-c2ccc(Cl)cc2)nn(-c2cnn(C)c2)c1=O and report it. 47.9%

* * *

System: DMS-114 complex spheroids with HUVEC/MSC, growth % test/control
procedure details: Anticancer human tumor DMS-114 cell line growth inhibition [AhR];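 note: spheroids exposed to agents for 7 days before readout; 100% = DMSO vehicle control wells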
measurement setup: second compound 3.16 µM; first compound 10 µM; stronger effect = lower value
quantity kind: viability, T/C (%)
Give bare numbers, in %.

compound | quantity kind | unit of measure | experimental value
Nc1ccccc1NC(=O)c1ccc(CNC(=O)OCc2cccnc2)cc1 + Cc1ccccc1N=Nc1ccc(NC(=O)c2ccnn2C)c(C)c1 | viability, T/C | % | 23.5
CC1(C)CCC(CN2CCN(c3ccc(C(=O)NS(=O)(=O)c4ccc(NCC5CCOCC5)c([N+](=O)[O-])c4)c(Oc4cnc5[nH]ccc5c4)c3)CC2)=C(c2ccc(Cl)cc2)C1 + Cc1cncc(-c2nc(NCCc3c[nH]c4ccccc34)c3ncn(C(C)C)c3n2)c1 | viability, T/C | % | 84.7
COc1cc(C2c3cc4c(cc3C(OC3OC5COC(C)OC5C(O)C3O)C3COC(=O)C23)OCO4)cc(OC)c1O (configuration not stated) + Cc1cncc(-c2nc(NCCc3c[nH]c4ccccc34)c3ncn(C(C)C)c3n2)c1 | viability, T/C | % | 8.67
Nc1ccn(C2OC(CO)C(O)C2(F)F)c(=O)n1 (configuration not stated) + Cc1ccccc1N=Nc1ccc(NC(=O)c2ccnn2C)c(C)c1 | viability, T/C | % | 28.5
Nc1ccn(C2OC(CO)C(O)C2(F)F)c(=O)n1 (configuration not stated) + Cc1cncc(-c2nc(NCCc3c[nH]c4ccccc34)c3ncn(C(C)C)c3n2)c1 | viability, T/C | % | 8.89
COc1ccc([C@@H](O)c2cc(-c3ncnc4cc(N5CCOCC5)ccc34)c(F)cc2Cl)nn1 + Cc1cncc(-c2nc(NCCc3c[nH]c4ccccc34)c3ncn(C(C)C)c3n2)c1 | viability, T/C | % | 39.5

Go through the items and report each one's viability, T/C.
1. CC1COCCN1c1cc(C2(S(C)(=N)=O)CC2)nc(-c2ccnc3[nH]ccc23)n1 (configuration not stated) + CC(CO)NC(=O)c1cc(-c2ccc(Cl)cc2)nn(-c2cnn(C)c2)c1=O
2. O=C(C=Cc1cccc(S(=O)(=O)Nc2ccccc2)c1)NO + Cc1cncc(-c2nc(NCCc3c[nH]c4ccccc34)c3ncn(C(C)C)c3n2)c1

1. 27.1
2. 7.76

Go through the items and report each one's viability, T/C.
1. O=C(C=Cc1cccc(S(=O)(=O)Nc2ccccc2)c1)NO + CC(CO)NC(=O)c1cc(-c2ccc(Cl)cc2)nn(-c2cnn(C)c2)c1=O
2. Nc1ccn(C2OC(CO)C(O)C2(F)F)c(=O)n1 (configuration not stated) + CC(CO)NC(=O)c1cc(-c2ccc(Cl)cc2)nn(-c2cnn(C)c2)c1=O
3. COc1cc(Nc2ncc3c(n2)-c2ccc(Cl)cc2C(c2c(F)cccc2OC)=NC3)ccc1C(=O)O + Cc1cncc(-c2nc(NCCc3c[nH]c4ccccc34)c3ncn(C(C)C)c3n2)c1
4. COc1ccc([C@@H](O)c2cc(-c3ncnc4cc(N5CCOCC5)ccc34)c(F)cc2Cl)nn1 + Cc1ccccc1N=Nc1ccc(NC(=O)c2ccnn2C)c(C)c1

[12.3, 11.1, 63, 84.4]

* * *

Test system: DMS-114 complex spheroids with HUVEC/MSC, growth % test/control
procedure details: Anticancer human tumor DMS-114 cell line growth inhibition [AhR];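 note: spheroids exposed to agents for 7 days before readout; 100% = DMSO vehicle control wells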
measurement setup: second compound 3.16 µM; first compound 0.00316 µM; stronger effect = lower value
quantity kind: viability, T/C

Please review the entries below; each comes with its answer.
molecule | target under test | quantity kind | experimental value
CC1COCCN1c1cc(-c2ccnn2C)c2ccnc(-c3ccn[nH]3)c2n1 (configuration not stated) + CC(CO)NC(=O)c1cc(-c2ccc(Cl)cc2)nn(-c2cnn(C)c2)c1=O | DMS-114 complex spheroids with HUVEC/MSC, growth % test/control | viability, T/C | 84.8%
CC1COCCN1c1cc(-c2ccnn2C)c2ccnc(-c3ccn[nH]3)c2n1 (configuration not stated) + Cc1ccccc1N=Nc1ccc(NC(=O)c2ccnn2C)c(C)c1 | DMS-114 complex spheroids with HUVEC/MSC, growth % test/control | viability, T/C | 99.7%
CC[C@@]1(O)C(=O)OCc2c1cc1n(c2=O)Cc2cc3c(CN(C)C)c(O)ccc3nc2-1 + Cc1ccccc1N=Nc1ccc(NC(=O)c2ccnn2C)c(C)c1 | DMS-114 complex spheroids with HUVEC/MSC, growth % test/control | viability, T/C | 93.2%
Cn1ncnc1C1c2n[nH]c(=O)c3cc(F)cc(c23)NC1c1ccc(F)cc1 (configuration not stated) + CC(CO)NC(=O)c1cc(-c2ccc(Cl)cc2)nn(-c2cnn(C)c2)c1=O | DMS-114 complex spheroids with HUVEC/MSC, growth % test/control | viability, T/C | 109%
Cn1ncnc1C1c2n[nH]c(=O)c3cc(F)cc(c23)NC1c1ccc(F)cc1 (configuration not stated) + Cc1cncc(-c2nc(NCCc3c[nH]c4ccccc34)c3ncn(C(C)C)c3n2)c1 | DMS-114 complex spheroids with HUVEC/MSC, growth % test/control | viability, T/C | 89.3%
Nc1ncn(C2CC(O)C(CO)O2)c(=O)n1 (configuration not stated) + CC(CO)NC(=O)c1cc(-c2ccc(Cl)cc2)nn(-c2cnn(C)c2)c1=O | DMS-114 complex spheroids with HUVEC/MSC, growth % test/control | viability, T/C | 109%
CC[C@@]1(O)C(=O)OCc2c1cc1n(c2=O)Cc2cc3c(CN(C)C)c(O)ccc3nc2-1 + Cc1cncc(-c2nc(NCCc3c[nH]c4ccccc34)c3ncn(C(C)C)c3n2)c1 | DMS-114 complex spheroids with HUVEC/MSC, growth % test/control | viability, T/C | 96.1%
Nc1ncn(C2CC(O)C(CO)O2)c(=O)n1 (configuration not stated) + Cc1cncc(-c2nc(NCCc3c[nH]c4ccccc34)c3ncn(C(C)C)c3n2)c1 | DMS-114 complex spheroids with HUVEC/MSC, growth % test/control | viability, T/C | 82.9%
Cn1ncnc1C1c2n[nH]c(=O)c3cc(F)cc(c23)NC1c1ccc(F)cc1 (configuration not stated) + Cc1ccccc1N=Nc1ccc(NC(=O)c2ccnn2C)c(C)c1 | DMS-114 complex spheroids with HUVEC/MSC, growth % test/control | viability, T/C | 102%
CC1COCCN1c1cc(-c2ccnn2C)c2ccnc(-c3ccn[nH]3)c2n1 (configuration not stated) + Cc1cncc(-c2nc(NCCc3c[nH]c4ccccc34)c3ncn(C(C)C)c3n2)c1 | DMS-114 complex spheroids with HUVEC/MSC, growth % test/control | viability, T/C | 83.9%

Go through the items and report each one's viability, T/C.
1. Nc1ncn(C2CC(O)C(CO)O2)c(=O)n1 (configuration not stated) + Cc1ccccc1N=Nc1ccc(NC(=O)c2ccnn2C)c(C)c1
2. CC[C@@]1(O)C(=O)OCc2c1cc1n(c2=O)Cc2cc3c(CN(C)C)c(O)ccc3nc2-1 + CC(CO)NC(=O)c1cc(-c2ccc(Cl)cc2)nn(-c2cnn(C)c2)c1=O

1. 115%
2. 92.1%
